- measurement notes: Plasma pharmacokinetics after single IV, IP or PO dose
- Assay type: in vivo, male CD-1 mice
- conditions: male, CD-1, mouse, in vivo; 10 mg/kg oral dosing, mice
measured quantity: AUC (µM·h)
Hi! Could you send only the number? It should be in µM·h, unit omitted.

Ask | State its AUC: C[C@]12CC[C@H](n3ccnc3)CC1=CCC1C2CC[C@]2(C)C(n3cnc4ccccc43)=CCC12 (stereo partly shown)
Reply | 71.9

###

- measurement notes: Plasma pharmacokinetics after single IV, IP or PO dose
- Type: in vivo, male CD-1 mice
- conditions: mouse; PO 10 mg/kg, male CD-1 mice, plasma
measured quantity: Cmax
Could you give the number and then its unit, please?

Ask | Respond only with Cmax recorded for C[C@]12CC[C@H](OCc3ccncc3)CC1=CCC1C2CC[C@]2(C)C(n3cnc4ccccc43)=CCC12 (some centres unmarked)
Reply | 175 ng/mL

Ask | Using known records, supply Cmax for C[C@]12CC[C@H](O)CC1=CC[C@@H]1[C@@H]2CC[C@]2(C)C(n3cnc4ccccc43)=CC[C@@H]12
Reply | 32.8 ng/mL

###

- measurement notes: Plasma pharmacokinetics after single IV, IP or PO dose
- Format: in vivo, male CD-1 mice
- conditions: mouse, in vivo; PO 10 mg/kg, male CD-1 mice, plasma
measured quantity: AUC(0-inf) (ng·h/mL)
# number only, unit ng·h/mL dropped from output

Ask | Look up and report measured AUC(0-inf) for this entry: C[C@]12CC[C@H](n3ccnc3)CC1=CCC1C2CC[C@]2(C)C(n3cnc4ccccc43)=CCC12 (stereo partly shown)
Reply | 31800

###

- measurement notes: Plasma pharmacokinetics after single IV, IP or PO dose
- Type: in vivo, male CD-1 mice
- conditions: male, CD-1, mouse, in vivo; PO 10 mg/kg, plasma, converted from ng/mL
measured quantity: Cmax

Ask | Fill in Cmax for record C[C@]12CC[C@H](n3ccnc3)CC1=CCC1C2CC[C@]2(C)C(n3cnc4ccccc43)=CCC12 (stereo partly shown)
Reply | ~2000 nM

###

- measurement notes: Plasma pharmacokinetics after single IV, IP or PO dose
- Type: in vivo, male CD-1 mice
- conditions: mouse, plasma; IV 1 mg/kg, male CD-1 mice
measured quantity: half-life (h)
Write the answer as a number in h, unit excluded.

Ask | Input C[C@]12CC[C@H](OCc3ccncc3)CC1=CCC1C2CC[C@]2(C)C(n3cnc4ccccc43)=CCC12 (some centres unmarked) , output reported half-life.
Reply | 7.48

Ask | Check the records and state half-life for C[C@]12CC[C@H](O)CC1=CC[C@@H]1[C@@H]2CC[C@]2(C)C(n3cnc4ccccc43)=CC[C@@H]12
Reply | 0.17

###

- measurement notes: Plasma pharmacokinetics after single IV, IP or PO dose
- Type: in vivo, male CD-1 mice
- conditions: male, CD-1, mouse, plasma; range over IV, IP and PO routes, mice
measured quantity: half-life

Ask | Given C[C@]12CC[C@H](O)CC1=CC[C@@H]1[C@@H]2CC[C@]2(C)C(n3cnc4ccccc43)=CC[C@@H]12 , respond with its half-life.
Reply | 10.2 to 75.6 min

###

- measurement notes: Plasma pharmacokinetics after single IV, IP or PO dose
- Type: in vivo, male CD-1 mice
- conditions: mouse, in vivo; IP 10 mg/kg, male CD-1 mice, plasma
- Experimental: These studies were conducted in male CD-1 mice (7–8 weeks old, weighing about 27–33 g) were obtained from Hylasco Bio-Technology Pvt. Ltd. (A Charles River Technology Licensee, Turkapally, India). […] Male CD-1 mice (7-8 weeks old, weighing about 27-33 g) were obtained from Hylasco Bio-Technology Pvt. […] Plasma pharmacokinetic parameters were calculated using the non-compartmental analysis tool of Phoenix software (Version 7, Pharsight) and were determined from individual animals in each group. […]
measured quantity: AUC(0-inf) (ng·h/mL)
Give the value in ng·h/mL but do not write ng·h/mL after it.

Ask | Give the reported value of AUC(0-inf) for this record: C[C@]12CC[C@H](n3ccnc3)CC1=CCC1C2CC[C@]2(C)C(n3cnc4ccccc43)=CCC12 (stereo partly shown)
Reply | 57300
